Conditions: siRNA; also: test system not given here
HELM strings list units from the 5' end as sugar, base in round brackets, then linkage (d deoxyribose, r ribose, m 2'-O-methyl, p phosphodiester). Strings are as the collection lists them, not checked against the first reports. ss, as = sense and antisense strand; [lna] = locked nucleic acid (LNA); [hna] = hexitol nucleic acid; [fl2r] = 2'-fluoro
Please respond with reported target mRNA knockdown for every item in the list.
Numbers only, in %.

• RNA1{r(A)p.r(G)p.r(U)p.m(U)p.r(A)p.r(A)p.r(C)p.r(C)p.r(C)p.r(G)p.r(G)p.r(G)p.r(A)p.r(C)p.r(U)p.m(U)p.r(G)p.r(G)p.r(A)p.r(T)p.r(T)}|RNA2{r(U)p.r(C)p.m(C)p.r(A)p.r(A)p.r(G)p.r(U)p.r(C)p.r(C)p.r(C)p.r(G)p.r(G)p.r(G)p.r(U)p.m(U)p.r(A)p.r(A)p.r(C)p.r(U)p.r(T)p.r(T)}$$$RNA1{StrandType:ss}|RNA2{StrandType:as}$ = 90
• RNA1{r(A)p.r(A)p.r(G)p.r(G)p.m(C)p.r(A)p.m(U)p.m(G)p.r(C)p.r(U)p.r(U)p.r(C)p.r(G)p.r(G)p.r(A)p.r(A)p.r(A)p.r(C)p.r(U)p.r(T)p.r(T)}|RNA2{r(A)p.r(G)p.r(U)p.r(U)p.r(U)p.r(C)p.r(C)p.r(G)p.r(A)p.r(A)p.r(G)p.m(C)p.r(A)p.m(U)p.r(G)p.r(C)p.r(C)p.r(U)p.r(U)p.r(T)p.r(T)}$$$RNA1{StrandType:ss}|RNA2{StrandType:as}$ = 87
• RNA1{r(G)p.r(A)p.r(C)p.r(G)p.[hna](U)p.r(A)p.r(A)p.[hna](A)p.r(C)p.r(G)p.[hna](G)p.r(C)p.r(C)p.[hna](A)p.r(C)p.r(A)p.r(A)p.r(G)p.r(U)p.r(U)p.d(T)}|RNA2{r(A)p.r(C)p.[lna](T)p.r(U)p.r(G)p.[lna](T)p.r(G)p.r(G)p.r(C)p.r(C)p.r(G)p.r(U)p.r(U)p.[lna](T)p.r(A)p.r(C)p.r(G)p.[lna](T)p.r(C)p.[lna](G)p.[lna](C)}$$$RNA1{StrandType:ss}|RNA2{StrandType:as}$ = 8.9
• RNA1{r(A)p.r(U)p.m(C)p.r(A)p.m(C)p.r(A)p.r(A)p.r(A)p.r(C)p.r(C)p.r(C)p.r(C)p.r(U)p.r(A)p.r(G)p.r(A)p.r(G)p.r(G)p.r(G)p.r(T)p.r(T)}|RNA2{r(C)p.r(C)p.r(C)p.r(U)p.r(C)p.m(U)p.r(A)p.r(G)p.r(G)p.r(G)p.r(G)p.r(U)p.r(U)p.r(U)p.r(G)p.m(U)p.r(G)p.r(A)p.r(U)p.r(T)p.r(T)}$$$RNA1{StrandType:ss}|RNA2{StrandType:as}$ = 75

As a next step, examine the substance that follows.
What value of target mRNA knockdown has been recorded for this entry: RNA1{[fl2r](U)p.r(C)p.[fl2r](C)p.r(A)p.[fl2r](A)p.r(G)p.[fl2r](C)p.r(U)p.[fl2r](U)p.r(C)p.[fl2r](C)p.r(U)p.[fl2r](C)p.r(G)p.[fl2r](U)p.r(U)p.[fl2r](G)p.r(G)p.[fl2r](U)p.r(T)p.r(T)}|RNA2{r(A)p.r(C)p.r(C)p.r(A)p.r(A)p.r(C)p.r(G)p.r(A)p.r(G)p.r(G)p.r(A)p.r(A)p.r(G)p.r(C)p.[fl2r](U)p.[fl2r](U)p.r(G)p.r(G)p.r(A)p.r(T)p.r(T)}$$$RNA1{StrandType:ss}|RNA2{StrandType:as}$ 51
